Reported Einf values follow for various compounds
Test system: Mycobacterium tuberculosis Erdman (autoluminescent)
assayRemarks: Einf, fitted maximum growth inhibition of three-drug combination (fraction); higher = stronger maximal inhibition
experimentalParameters: in vitro model: cholesterol-high 0.2 mM; time point: terminal (~4-5 doublings, model-specific)

[
  {
    "compound": "NNC(=O)c1ccncc1 [isoniazid] + NC(=O)c1cnccn1 [pyrazinamide] + CO[C@H]1/C=C/O[C@@]2(C)Oc3c(C)c(O)c4c(O)c(c(/C=N/N5CCN(C)CC5)c(O)c4c3C2=O)NC(=O)/C(C)=C\\C=C\\[C@H](C)[C@H](O)[C@@H](C)[C@@H](O)[C@@H](C)[C@H](OC(C)=O)[C@@H]1C [rifampicin]",
    "Einf": 1
  },
  {
    "compound": "COc1nc2ccc(Br)cc2cc1[C@@H](c1ccccc1)[C@@](O)(CCN(C)C)c1cccc2ccccc12 [bedaquiline] + NC(=O)c1cnccn1 [pyrazinamide] + CO[C@H]1/C=C/O[C@@]2(C)Oc3c(C)c(O)c4c(O)c(c(/C=N/N5CCN(C6CCCC6)CC5)c(O)c4c3C2=O)NC(=O)/C(C)=C\\C=C\\[C@H](C)[C@H](O)[C@@H](C)[C@@H](O)[C@@H](C)[C@H](OC(C)=O)[C@@H]1C [rifapentine]",
    "Einf": 1
  }
]

====

Some compounds, each annotated with its measured FIC90.
Tested on: Mycobacterium tuberculosis Erdman (autoluminescent)
assayRemarks: FIC90 (Loewe) at 90% inhibition (log2); higher = more antagonistic
experimentalParameters: in vitro model: dormancy (butyrate + nitrate, low O2); time point: terminal (~4-5 doublings, model-specific)
measureName: FIC90

[
  {
    "compound": "NNC(=O)c1ccncc1 [isoniazid] + CO[C@H]1/C=C/O[C@@]2(C)Oc3c(C)c(O)c4c(O)c(c(/C=N/N5CCN(C)CC5)c(O)c4c3C2=O)NC(=O)/C(C)=C\\C=C\\[C@H](C)[C@H](O)[C@@H](C)[C@@H](O)[C@@H](C)[C@H](OC(C)=O)[C@@H]1C [rifampicin]",
    "measureName": "FIC90",
    "endpointResult": -0.256
  },
  {
    "compound": "COc1nc2ccc(Br)cc2cc1[C@@H](c1ccccc1)[C@@](O)(CCN(C)C)c1cccc2ccccc12 [bedaquiline] + CO[C@H]1/C=C/O[C@@]2(C)Oc3c(C)c(O)c4c(O)c(c(/C=N/N5CCN(C6CCCC6)CC5)c(O)c4c3C2=O)NC(=O)/C(C)=C\\C=C\\[C@H](C)[C@H](O)[C@@H](C)[C@@H](O)[C@@H](C)[C@H](OC(C)=O)[C@@H]1C [rifapentine]",
    "measureName": "FIC90",
    "endpointResult": 0.635
  },
  {
    "compound": "NC(=O)c1cnccn1 [pyrazinamide] + CO[C@H]1/C=C/O[C@@]2(C)Oc3c(C)c(O)c4c(O)c(c(/C=N/N5CCN(C6CCCC6)CC5)c(O)c4c3C2=O)NC(=O)/C(C)=C\\C=C\\[C@H](C)[C@H](O)[C@@H](C)[C@@H](O)[C@@H](C)[C@H](OC(C)=O)[C@@H]1C [rifapentine]",
    "measureName": "FIC90",
    "endpointResult": -0.0574
  },
  {
    "compound": "CC[C@@H](CO)NCCN[C@@H](CC)CO [ethambutol] + CO[C@H]1/C=C/O[C@@]2(C)Oc3c(C)c(O)c4c(O)c(c(/C=N/N5CCN(C)CC5)c(O)c4c3C2=O)NC(=O)/C(C)=C\\C=C\\[C@H](C)[C@H](O)[C@@H](C)[C@@H](O)[C@@H](C)[C@H](OC(C)=O)[C@@H]1C",
    "measureName": "FIC90",
    "endpointResult": -0.513
  },
  {
    "compound": "CC(=O)NC[C@H]1CN(c2ccc(N3CCOCC3)c(F)c2)C(=O)O1 [linezolid] + NC(=O)c1cnccn1 [pyrazinamide]",
    "measureName": "FIC90",
    "endpointResult": 1.09
  },
  {
    "compound": "NNC(=O)c1ccncc1 [isoniazid] + CC(=O)NC[C@H]1CN(c2ccc(N3CCOCC3)c(F)c2)C(=O)O1 [linezolid]",
    "measureName": "FIC90",
    "endpointResult": 0.558
  },
  {
    "compound": "COc1nc2ccc(Br)cc2cc1[C@@H](c1ccccc1)[C@@](O)(CCN(C)C)c1cccc2ccccc12 [bedaquiline] + NC(=O)c1cnccn1 [pyrazinamide]",
    "measureName": "FIC90",
    "endpointResult": -0.991
  },
  {
    "compound": "COc1nc2ccc(Br)cc2cc1[C@@H](c1ccccc1)[C@@](O)(CCN(C)C)c1cccc2ccccc12 [bedaquiline] + CC(C)/N=c1\\cc2n(-c3ccc(Cl)cc3)c3ccccc3nc-2cc1Nc1ccc(Cl)cc1 [clofazimine]",
    "measureName": "FIC90",
    "endpointResult": -0.863
  }
]

====

Test system: Mycobacterium tuberculosis Erdman (autoluminescent)
assayRemarks: FIC90 (Loewe) at 90% inhibition (log2); higher = more antagonistic
experimentalParameters: in vitro model: dormancy (butyrate + nitrate, low O2); time point: constant (~7 days, model-specific)
# cutoff 0.2 applies to FIC90; >= gives Yes, < gives No

[
  {
    "compound": "CC(=O)NC[C@H]1CN(c2ccc(N3CCOCC3)c(F)c2)C(=O)O1 [linezolid] + COc1c(N2C[C@@H]3CCCN[C@@H]3C2)c(F)cc2c(=O)c(C(=O)O)cn(C3CC3)c12 [moxifloxacin]",
    "answerLabel": "Yes"
  },
  {
    "compound": "COc1nc2ccc(Br)cc2cc1[C@@H](c1ccccc1)[C@@](O)(CCN(C)C)c1cccc2ccccc12 [bedaquiline] + O=[N+]([O-])c1cn2c(n1)OC[C@@H](OCc1ccc(OC(F)(F)F)cc1)C2 [pretomanid]",
    "answerLabel": "No"
  },
  {
    "compound": "CC(C)/N=c1\\cc2n(-c3ccc(Cl)cc3)c3ccccc3nc-2cc1Nc1ccc(Cl)cc1 [clofazimine] + CO[C@H]1/C=C/O[C@@]2(C)Oc3c(C)c(O)c4c(O)c(c(/C=N/N5CCN(C6CCCC6)CC5)c(O)c4c3C2=O)NC(=O)/C(C)=C\\C=C\\[C@H](C)[C@H](O)[C@@H](C)[C@@H](O)[C@@H](C)[C@H](OC(C)=O)[C@@H]1C [rifapentine]",
    "answerLabel": "No"
  },
  {
    "compound": "CC(=O)NC[C@H]1CN(c2ccc(N3CCOCC3)c(F)c2)C(=O)O1 [linezolid] + CO[C@H]1/C=C/O[C@@]2(C)Oc3c(C)c(O)c4c(O)c(c(/C=N/N5CCN(C)CC5)c(O)c4c3C2=O)NC(=O)/C(C)=C\\C=C\\[C@H](C)[C@H](O)[C@@H](C)[C@@H](O)[C@@H](C)[C@H](OC(C)=O)[C@@H]1C [rifampicin]",
    "answerLabel": "Yes"
  },
  {
    "compound": "COc1c(N2C[C@@H]3CCCN[C@@H]3C2)c(F)cc2c(=O)c(C(=O)O)cn(C3CC3)c12 [moxifloxacin] + CO[C@H]1/C=C/O[C@@]2(C)Oc3c(C)c(O)c4c(O)c(c(/C=N/N5CCN(C6CCCC6)CC5)c(O)c4c3C2=O)NC(=O)/C(C)=C\\C=C\\[C@H](C)[C@H](O)[C@@H](C)[C@@H](O)[C@@H](C)[C@H](OC(C)=O)[C@@H]1C [rifapentine]",
    "answerLabel": "No"
  },
  {
    "compound": "O=[N+]([O-])c1cn2c(n1)OC[C@@H](OCc1ccc(OC(F)(F)F)cc1)C2 [pretomanid] + NC(=O)c1cnccn1 [pyrazinamide]",
    "answerLabel": "No"
  },
  {
    "compound": "COc1c(N2C[C@@H]3CCCN[C@@H]3C2)c(F)cc2c(=O)c(C(=O)O)cn(C3CC3)c12 [moxifloxacin] + NC(=O)c1cnccn1 [pyrazinamide]",
    "answerLabel": "No"
  },
  {
    "compound": "CC(C)/N=c1\\cc2n(-c3ccc(Cl)cc3)c3ccccc3nc-2cc1Nc1ccc(Cl)cc1 [clofazimine] + CC(=O)NC[C@H]1CN(c2ccc(N3CCOCC3)c(F)c2)C(=O)O1 [linezolid]",
    "answerLabel": "Yes"
  },
  {
    "compound": "COc1nc2ccc(Br)cc2cc1[C@@H](c1ccccc1)[C@@](O)(CCN(C)C)c1cccc2ccccc12 [bedaquiline] + COc1c(N2C[C@@H]3CCCN[C@@H]3C2)c(F)cc2c(=O)c(C(=O)O)cn(C3CC3)c12 [moxifloxacin]",
    "answerLabel": "Yes"
  },
  {
    "compound": "NNC(=O)c1ccncc1 [isoniazid] + NC(=O)c1cnccn1 [pyrazinamide]",
    "answerLabel": "No"
  }
]
